Target: human TLR7 (Homo sapiens)
Sequence (Q9NYK1 27-1049): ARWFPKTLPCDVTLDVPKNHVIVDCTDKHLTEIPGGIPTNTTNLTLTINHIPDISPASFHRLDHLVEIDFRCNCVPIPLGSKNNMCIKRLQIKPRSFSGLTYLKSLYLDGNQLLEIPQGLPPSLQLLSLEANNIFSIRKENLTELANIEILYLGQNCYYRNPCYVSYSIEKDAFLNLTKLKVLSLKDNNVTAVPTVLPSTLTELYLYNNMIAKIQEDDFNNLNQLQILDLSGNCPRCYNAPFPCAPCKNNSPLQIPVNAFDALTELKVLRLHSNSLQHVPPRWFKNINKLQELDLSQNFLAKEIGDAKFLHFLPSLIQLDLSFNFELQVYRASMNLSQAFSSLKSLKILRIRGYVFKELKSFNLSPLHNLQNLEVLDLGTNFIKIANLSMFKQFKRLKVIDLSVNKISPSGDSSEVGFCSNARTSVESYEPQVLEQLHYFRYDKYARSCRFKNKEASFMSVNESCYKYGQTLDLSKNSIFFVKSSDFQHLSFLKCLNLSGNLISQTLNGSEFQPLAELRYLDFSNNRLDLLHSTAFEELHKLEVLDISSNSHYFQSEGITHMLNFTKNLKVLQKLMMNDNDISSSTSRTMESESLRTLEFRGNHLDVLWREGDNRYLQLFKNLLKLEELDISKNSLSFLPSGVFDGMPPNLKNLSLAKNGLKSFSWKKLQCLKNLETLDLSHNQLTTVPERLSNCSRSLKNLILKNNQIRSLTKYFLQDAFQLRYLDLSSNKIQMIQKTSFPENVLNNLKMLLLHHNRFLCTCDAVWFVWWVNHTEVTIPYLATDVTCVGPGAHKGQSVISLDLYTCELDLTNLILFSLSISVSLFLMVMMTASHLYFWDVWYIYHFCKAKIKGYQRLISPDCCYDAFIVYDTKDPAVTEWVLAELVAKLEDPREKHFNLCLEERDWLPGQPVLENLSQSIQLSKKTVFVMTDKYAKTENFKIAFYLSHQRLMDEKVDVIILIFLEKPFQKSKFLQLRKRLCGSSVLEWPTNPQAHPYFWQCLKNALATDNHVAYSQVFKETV
Assay: HEK293 NFKB reporter assay, human TLR7
Details: HEK293 NFKB reporter cells expressing human TLR7; read-out: HEK293 hTLR7 EC50
Method: Each compound was synthesized, purified, and characterized by mass spectrometry and shown to have the mass indicated. Additional experimental procedures are found in the Examples. Activity against HEK293 NFKB reporter cells expressing human TLR7 or human TLR8 was measured according to Example 202. HEK293 reporter cells expressing human TLR7 or human TLR8 were purchased from Invivogen and vendor protocols were followed for cellular propagation and experimentation. […]
parameter_measured: pEC50
Quick note: pEC50 means taking -log10 of the concentration in moles per liter.

-- ask Identify the reported pEC50 for the following entry. CCCN(CCCNC(=O)OC1CCC1)C(=O)C1=Cc2sc(CC3CNC3)cc2N=C(N)C1
-- reply 5.69

-- ask Identify the reported pEC50 for the following entry. CCCN(CCC)C(=O)C1=Cc2sc(CN3CCN(C)CC3)cc2N=C(N)C1
-- reply 5.25

-- ask Identify the reported pEC50 for the following entry. CCCN(OCC)C(=O)C1=Cc2sc(CN3CCCN(C(=O)OC(C)(C)C)CC3)cc2N=C(N)C1
-- reply 6.36

-- ask Identify the reported pEC50 for the following entry. CCCN(OC(C)C)C(=O)C1=Cc2sc(CC3CNC3)cc2N=C(N)C1
-- reply 5.14

-- ask Identify the reported pEC50 for the following entry. CCCN(CCC)C(=O)C1=Cc2sc(COCCCNC(=O)OC(C)(C)C)cc2N=C(N)C1
-- reply 5.35

-- ask Identify the reported pEC50 for the following entry. CCCN(Cc1ccc(CN(C)C)c(C(F)(F)F)n1)C(=O)C1=Cc2sc(CCCCCN)cc2N=C(N)C1
-- reply 5.23

-- ask Identify the reported pEC50 for the following entry. CCCN(OCC)C(=O)C1=Cc2sc(CN3CC4(C3)CN(c3ccc(C)cc3)C4)cc2N=C(N)C1
-- reply 5.50

-- ask Identify the reported pEC50 for the following entry. CCCN(OCC)C(=O)C1=Cc2sc(CC3CCNCC3)cc2N=C(N)C1
-- reply 6.15

---

Biological target: human TLR8 (Homo sapiens, UniProt Q9NR97)
Sequence (Q9NR97 27-1041): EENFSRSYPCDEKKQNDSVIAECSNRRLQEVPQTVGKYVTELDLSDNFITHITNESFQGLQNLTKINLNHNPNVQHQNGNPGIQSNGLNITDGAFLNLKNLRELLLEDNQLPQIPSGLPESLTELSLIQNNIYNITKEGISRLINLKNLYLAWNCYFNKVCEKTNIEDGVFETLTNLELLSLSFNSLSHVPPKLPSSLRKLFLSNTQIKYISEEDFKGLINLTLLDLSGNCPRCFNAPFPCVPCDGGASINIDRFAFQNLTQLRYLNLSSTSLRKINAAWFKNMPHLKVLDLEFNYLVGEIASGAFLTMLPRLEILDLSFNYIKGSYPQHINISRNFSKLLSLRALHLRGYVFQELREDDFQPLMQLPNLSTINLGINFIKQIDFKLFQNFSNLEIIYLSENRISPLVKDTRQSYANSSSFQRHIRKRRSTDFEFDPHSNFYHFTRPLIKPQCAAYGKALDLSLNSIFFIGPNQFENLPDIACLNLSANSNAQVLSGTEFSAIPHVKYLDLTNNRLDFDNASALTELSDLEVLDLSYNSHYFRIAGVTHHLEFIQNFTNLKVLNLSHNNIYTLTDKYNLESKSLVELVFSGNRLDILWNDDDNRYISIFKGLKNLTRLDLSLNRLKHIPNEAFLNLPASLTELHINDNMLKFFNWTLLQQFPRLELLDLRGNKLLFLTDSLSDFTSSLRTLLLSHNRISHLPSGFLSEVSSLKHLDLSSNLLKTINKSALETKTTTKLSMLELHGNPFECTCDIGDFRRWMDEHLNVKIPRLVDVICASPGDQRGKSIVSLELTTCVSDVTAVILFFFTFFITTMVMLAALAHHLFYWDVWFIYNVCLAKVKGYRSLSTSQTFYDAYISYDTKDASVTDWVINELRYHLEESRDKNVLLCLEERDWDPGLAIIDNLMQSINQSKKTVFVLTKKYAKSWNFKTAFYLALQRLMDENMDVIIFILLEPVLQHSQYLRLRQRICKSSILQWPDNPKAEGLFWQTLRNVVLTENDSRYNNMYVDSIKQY
Assay: HEK293 NFKB reporter assay, human TLR8
Settings: HEK293 NFKB reporter cells expressing human TLR8; read-out: HEK293 hTLR8 EC50
parameter_measured: pEC50
Quick note: pEC50 means taking -log10 of the concentration in moles per liter.

-- ask Identify the reported pEC50 for the following entry. CCCN(CCC)C(=O)C1=Cc2sc(CCCCCN(C)C)cc2N=C(N)C1
-- reply 6.42

-- ask Identify the reported pEC50 for the following entry. CCCN(CCC)C(=O)C1=Cc2sc(CNC(=O)CCN)cc2N=C(N)C1
-- reply 5.50

-- ask Identify the reported pEC50 for the following entry. CCCN(OCC)C(=O)C1=Cc2sc(-c3cn[nH]c3)cc2N=C(N)C1
-- reply 5.17

-- ask Identify the reported pEC50 for the following entry. CCCN(CCCNC(=O)OCc1ccccc1)C(=O)C1=Cc2sc(CCCCCNC(=O)OC(C)(C)C)cc2N=C(N)C1
-- reply 5.90

-- ask Identify the reported pEC50 for the following entry. CCCN(OCC)C(=O)C1=Cc2sc(CN3CC[C@@H]4[C@H](C3)CN4C(=O)OC(C)(C)C)cc2N=C(N)C1
-- reply 5.49

-- ask Identify the reported pEC50 for the following entry. CCCN(Cc1cnc(CN)cn1)C(=O)C1=Cc2sccc2N=C(N)C1
-- reply 6.75

-- ask Identify the reported pEC50 for the following entry. CCCN(CCCNC(=O)OC(C)(C)C)C(=O)C1=Cc2sccc2N=C(N)C1
-- reply 5.81

-- ask Identify the reported pEC50 for the following entry. CCCN(OCC)C(=O)C1=Cc2sc(CN3C[C@H]4CN(C(=O)OC(C)(C)C)C[C@@H]4C3)cc2N=C(N)C1
-- reply 5.95

-- ask Identify the reported pEC50 for the following entry. CCCN(C(=O)C1=Cc2sc(CCCCCN)cc2N=C(N)C1)C1CC1
-- reply 5.49

-- ask Identify the reported pEC50 for the following entry. CCCN(OCC)C(=O)C1=Cc2sc(CCC3(O)CN(C(=O)OC(C)(C)C)C3)cc2N=C(N)C1
-- reply 5.79

-- ask Identify the reported pEC50 for the following entry. CCCN(CCC)C(=O)C1=Cc2scc(C)c2N=C(N)C1
-- reply 5.41

-- ask Identify the reported pEC50 for the following entry. CCCN(CCc1ccc(OC)cc1)C(=O)C1=Cc2sc(CCCCCN)cc2N=C(N)C1
-- reply 5.16

-- ask Identify the reported pEC50 for the following entry. CCCN(OCC)C(=O)C1=Cc2sc(CN3Cc4ccc(NC(=O)CCN)cc4C3)cc2N=C(N)C1
-- reply 5.53

-- ask Identify the reported pEC50 for the following entry. CCCN(OCC)C(=O)C1=Cc2sc(CCC3(O)CNC3)cc2N=C(N)C1
-- reply 5.39

-- ask Identify the reported pEC50 for the following entry. CCCN(CCCNC(=O)OC1CCC1)C(=O)C1=Cc2sc(-c3cn[nH]c3)cc2N=C(N)C1
-- reply 5.43

-- ask Identify the reported pEC50 for the following entry. CCON(CCC(F)(F)F)C(=O)C1=Cc2sccc2N=C(N)C1
-- reply 6.52

-- ask Identify the reported pEC50 for the following entry. CCCN(OCCNC(=O)OC1CCC1)C(=O)C1=Cc2sc(CC3CNC3)cc2N=C(N)C1
-- reply 6.54

-- ask Identify the reported pEC50 for the following entry. CCCN(CCCNC(=O)C(C)(C)C)C(=O)C1=Cc2sc(CCCCCNC(=O)OC(C)(C)C)cc2N=C(N)C1
-- reply 5.45
